peptide exchange yield values by entry
Target of assay: HLA-A*24 (human)
Assay name: UV-ligand exchange, anti-b2m ELISA

Binder: IYATEAHVF [peptide SEQ ID No 201 …]
peptide exchange yield: 50 to 75%

Binder: TYELRYFQI [peptide SEQ ID No 204 …]
peptide exchange yield: > 75%

Binder: EYSLFPGQVVI [peptide SEQ ID No 197 …]
peptide exchange yield: 50 to 75%

Binder: VHIPEVYLI [peptide SEQ ID No 205 …]
peptide exchange yield: 50 to 75%

Binder: HYSQELSLLYL [peptide SEQ ID No 158 …]
peptide exchange yield: > 75%

Binder: VFTSTARAF [peptide SEQ ID No 183 …]
peptide exchange yield: 50 to 75%

Binder: EYQENFLSF [peptide SEQ ID No 206 …]
peptide exchange yield: 50 to 75%

Binder: DYTTWTALL [peptide SEQ ID No 165 …]
peptide exchange yield: > 75%
